Test: In vitro potency against TNF alpha induced expression of Selectin E on human vascular endothelial cells using CAM ELISA assay
pIC50: −log10 of the molar value.
Threshold check on pIC50: at or above 5 gives t, strictly below gives f.

Compound	Label
Cc1occc1Sc1cncc2sc(C(N)=O)cc12	t
CCc1cc2c(=O)[nH]cnc2s1	f
Cc1ccc(Sc2cncc3sc(C(=O)NN)cc23)cc1	t
CCc1cc2c(Sc3nnc(C)s3)ncnc2s1	t

Enquiry: Is pIC50 at least 5? Consider Cc1ccc(Sc2cncc3sc(C(N)=O)cc23)cc1C
Return: t

Enquiry: Can CCc1cc2c(Cl)ncnc2s1 [4-Chloro-6-ethyl-thieno[2,3-d]pyrimidine] be said to have pIC50 at or above 5?
Return: f
